FYI, the data here is from patent US6545007B2.

test system: HIV-1 (IIIB strain); format: cell-based; conditions: anti-HIV-1 activity, HIV-1-infected MT-4 cells
measurementKind: EC50

Would you please look over these solved cases?
CCC(c1ccccc1)c1cc(=O)[nH]c(SC(C)C)n1 (stereo not drawn); 800 nM
CCC(C)Sc1nc(Cc2ccc(C)cc2)cc(=O)[nH]1 (stereo not drawn); 600 nM
CC(C)Sc1nc(C(C)c2ccccc2)cc(=O)[nH]1 (stereo not drawn); 900 nM
Cc1c(Cc2c(F)cccc2F)nc(SC2CCCCC2)[nH]c1=O; 90 nM
Cc1c(Cc2c(F)cccc2F)nc(NC2CCCC2)[nH]c1=O; 20 nM

# EC50 (molecule: CCC(C)Sc1nc(Cc2ccccc2N)cc(=O)[nH]1 (stereo not drawn) ) is 21200 nM

# EC50 (molecule: CCC(C)Sc1nc(Cc2cccc([N+](=O)[O-])c2)c(C)c(=O)[nH]1 (stereo not drawn) ) is 350 nM

# EC50 (molecule: CC(c1cc(=O)[nH]c(SC2CCCC2)n1)c1c(Cl)cccc1Cl (stereo not drawn) ) is 1000 nM
